Where do these numbers come from? They come from patent US20260109690A1.

Target: HDAC6 (Homo sapiens, UniProt Q9UBN7)
Sequence (Q9UBN7 whole entry): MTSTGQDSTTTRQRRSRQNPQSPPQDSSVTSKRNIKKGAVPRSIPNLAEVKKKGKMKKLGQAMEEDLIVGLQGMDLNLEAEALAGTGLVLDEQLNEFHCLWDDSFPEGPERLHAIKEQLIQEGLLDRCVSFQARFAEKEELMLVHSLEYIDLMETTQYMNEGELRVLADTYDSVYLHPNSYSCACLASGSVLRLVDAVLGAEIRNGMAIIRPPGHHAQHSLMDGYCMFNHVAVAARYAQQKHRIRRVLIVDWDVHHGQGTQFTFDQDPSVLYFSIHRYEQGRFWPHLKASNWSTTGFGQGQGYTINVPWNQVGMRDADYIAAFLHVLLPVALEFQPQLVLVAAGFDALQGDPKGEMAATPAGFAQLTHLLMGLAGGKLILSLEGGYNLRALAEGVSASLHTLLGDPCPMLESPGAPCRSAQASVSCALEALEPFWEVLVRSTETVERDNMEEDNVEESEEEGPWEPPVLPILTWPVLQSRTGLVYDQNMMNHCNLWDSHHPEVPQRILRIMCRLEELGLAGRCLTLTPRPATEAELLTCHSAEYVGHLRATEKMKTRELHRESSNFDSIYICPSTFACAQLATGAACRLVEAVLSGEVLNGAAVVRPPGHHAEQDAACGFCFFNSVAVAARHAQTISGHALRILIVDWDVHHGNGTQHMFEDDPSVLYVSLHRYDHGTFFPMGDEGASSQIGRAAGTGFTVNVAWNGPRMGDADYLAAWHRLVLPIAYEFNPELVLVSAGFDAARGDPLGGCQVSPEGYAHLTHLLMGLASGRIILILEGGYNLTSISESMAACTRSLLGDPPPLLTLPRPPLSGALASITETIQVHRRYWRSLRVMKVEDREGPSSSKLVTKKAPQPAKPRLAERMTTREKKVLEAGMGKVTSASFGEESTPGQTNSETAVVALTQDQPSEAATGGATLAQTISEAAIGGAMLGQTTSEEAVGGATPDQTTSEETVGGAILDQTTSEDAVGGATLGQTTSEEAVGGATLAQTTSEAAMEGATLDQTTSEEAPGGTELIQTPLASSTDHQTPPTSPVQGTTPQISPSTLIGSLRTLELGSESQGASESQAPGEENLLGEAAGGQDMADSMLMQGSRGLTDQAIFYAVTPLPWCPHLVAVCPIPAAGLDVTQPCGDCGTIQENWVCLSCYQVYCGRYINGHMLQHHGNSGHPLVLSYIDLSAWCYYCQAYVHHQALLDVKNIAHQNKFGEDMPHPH
Assay: Biochemical HDAC6 inhibitory activity assay
Settings: read-out: HDAC6 IC50
pIC50: −log10 of the molar value. Where a name gives a salt, the structure may show the parent alone.
compounds and their reported pIC50
quantity.measured: pIC50

{"compound": "O=C(NO)c1ccc(-c2nc(Nc3ccc(C(=O)N4CCOCC4)c(F)c3)ncc2Cl)cc1 [Compound I-17]", "result": "> 6.00"}
{"compound": "O=C(NO)c1ccc(-c2ccnc(Nc3ccc(C(=O)N4CCOCC4)c(F)c3)n2)cc1 [Compound I-1]", "result": "> 6.00"}
{"compound": "Cc1cc(-c2ccnc(Nc3ccc(N4CCOC(C)C4)c(F)c3)n2)ccc1C(=O)NO (centres unmarked) [Compound I-12]", "result": "5.00 to 6.00"}
{"compound": "CC1CCN(Cc2ccc(Nc3nccc(-c4ccc(C(=O)NO)cc4)n3)cc2F)CC1 [Compound I-6]", "result": "> 6.00"}
{"compound": "CC1CN(c2ccc(Nc3nccc(-c4ccc(C(=O)NO)cc4)n3)cc2F)CCO1 (centres unmarked) [Compound I-11]", "result": "> 6.00"}
{"compound": "CCNNC(=O)c1ccc(-c2ccnc(N3CCC4(CC3)COC4)n2)cc1 [Compound I-23]", "result": "> 6.00"}
{"compound": "CCNNC(=O)c1ccc(-c2nc(N3CCC4(CC3)COC4)ncc2Cl)cc1 [Compound I-24]", "result": "< 4.00"}
{"compound": "CCNNC(=O)c1ccc(-c2nc(N3CCOCC3)ncc2Cl)cc1 [Compound I-22]", "result": "< 4.00"}
{"compound": "CC1CN(Cc2ccc(Nc3nccc(-c4ccc(C(=O)NO)cc4)n3)cc2F)CCO1 (racemic) [Compound I-8]", "result": "> 6.00"}
{"compound": "CN1CCN(Cc2ccc(Nc3nccc(-c4ccc(C(=O)NO)cc4)n3)cc2F)CC1 [Compound I-7]", "result": "> 6.00"}
{"compound": "C[C@@H]1CN(Cc2ccc(Nc3nccc(-c4ccc(-c5nnc(C(F)F)o5)cc4F)n3)cc2F)CCO1 [Compound I-33]", "result": "> 6.00"}
{"compound": "O=C1NCC2(CCN(c3nccc(-c4ccc(C(=O)NO)cc4)n3)CC2)O1 [Compound I-26]", "result": "> 6.00"}
{"compound": "O=C(NO)c1ccc(-c2ccnc(N3CCC4(CC3)COC4)n2)cc1 [Compound I-25]", "result": "> 6.00"}
{"compound": "CCNNC(=O)c1ccc(-c2ccnc(N3CCOCC3)n2)cc1 [Compound I-21]", "result": "> 6.00"}
{"compound": "CCNNC(=O)c1ccc(-c2ccnc(Nc3ccc(C(=O)N4CCOCC4)cc3)n2)cc1 [Compound I-19]", "result": "> 6.00"}
{"compound": "N#CNC(=O)c1ccc(-c2ccnc(Nc3ccc(C(=O)N4CCOCC4)c(F)c3)n2)cc1 [Compound I-2]", "result": "< 4.00"}
{"compound": "O=C(NO)c1ccc(-c2ccnc(N3CCC(F)(F)CC3)n2)cc1 [Compound I-27]", "result": "> 6.00"}
{"compound": "C[C@@H]1CN(c2ccc(Nc3nccc(-c4ccc(-c5nnc(C(F)F)o5)cn4)n3)cc2F)CCO1 [Compound I-39]", "result": "5.00 to 6.00"}
{"compound": "CC1CN(C(C)c2ccc(Nc3nccc(-c4ccc(C(=O)NO)cc4)n3)cc2F)CCO1 (centres unmarked) [Compound I-13]", "result": "> 6.00"}
{"compound": "CN1CCN(C(=O)c2ccc(Nc3nccc(-c4ccc(C(=O)NO)cc4)n3)cc2F)CC1 [Compound I-4]", "result": "> 6.00"}
{"compound": "C[C@H]1CN(Cc2ccc(-c3ccnc(Nc4ccc(-c5nnc(C(F)F)o5)cc4F)n3)c(F)c2)CCO1 [Compound I-36]", "result": "5.00 to 6.00"}
{"compound": "C[C@@H]1CN(Cc2ccc(Nc3nccc(-c4ccc(-c5nnc(C(F)F)o5)cc4)n3)cc2F)CCO1 [Compound I-32, TFA salt]", "result": "5.00 to 6.00"}
{"compound": "C[C@H]1CN(Cc2ccc(Nc3nccc(-c4ccc(C(=O)NO)cc4)n3)cc2F)CCO1 [Compound I-15]", "result": "> 6.00"}
{"compound": "C[C@H]1CN(c2ccc(Nc3nccc(-c4ccc(-c5nnc(C(F)F)o5)cn4)n3)cc2F)CCO1 [Compound I-38]", "result": "5.00 to 6.00"}
{"compound": "CCNNC(=O)c1ccc(-c2ccnc(Nc3ccc(C(=O)N4CCOCC4)c(F)c3)n2)cc1 [Compound I-18]", "result": "> 6.00"}
{"compound": "CC1CCN(C(=O)c2ccc(Nc3nccc(-c4ccc(C(=O)NO)cc4)n3)cc2F)CC1 [Compound I-3]", "result": "> 6.00"}
{"compound": "C[C@H]1CN(Cc2ccc(Nc3nccc(-c4ccc(-c5nnc(C(F)F)o5)cc4)n3)cc2F)CCO1 [Compound I-30]", "result": "5.00 to 6.00"}
{"compound": "C[C@H]1CN(Cc2ccc(Nc3nccc(-c4ccc(-c5nnc(C(F)F)o5)cn4)n3)cc2F)CCO1 [Compound I-34]", "result": "5.00 to 6.00"}
{"compound": "C[C@@H]1CN(Cc2ccc(Nc3nccc(-c4ccc(C(=O)NO)cc4)n3)cc2F)CCO1 [Compound I-16]", "result": "> 6.00"}
{"compound": "Fc1cc(Nc2nccc(-c3ccc(-c4nnc(C(F)F)o4)cn3)n2)ccc1N1CCOCC1 [Compound I-40]", "result": "5.00 to 6.00"}
{"compound": "CC(c1ccc(Nc2nccc(-c3ccc(C(=O)NO)cc3)n2)cc1F)N1CCN(C)CC1 (centres unmarked) [Compound I-10]", "result": "> 6.00"}
{"compound": "CCNNC(=O)c1ccc(-c2ccnc(NC(=O)N3CCOCC3)n2)cc1 [Compound I-20]", "result": "5.00 to 6.00"}
